# subjectOfTest: T1, Anti-HRP antibody(r)
# T1 construct: Rabbit IgG, immobilised on a microplate; also called rabbit anti-HRP antibodies; anti-HRP antibody from a rabbit
# protocolSummary: labelled peptide on antibody immobilised on microplate; antigen HRP
Ends that are not written are not given here. FAM = carboxyfluorescein (FAM) fluorescent label
Field: change (%) of fluorescence at bottom (B) of microplate. Provide a value for each of the binders that follow.
Report only the number, with the unit % understood.

Ask: Given the binder {FAM}-VYYCFQGSHVPFTK (Synthetic 14-mer homologous to the FR3 or FR4 region of the light chain; also called L2 switching peptide; second peptide compound L2) [L2 peptide] , what is its reported change (%) of fluorescence at bottom (B) of microplate?
Reply: -74.5

Ask: change (%) of fluorescence at bottom (B) of microplate lookup needed for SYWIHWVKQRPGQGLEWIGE (not fully specified (N-terminus), Synthetic 20-mer homologous to the FR2 region of the heavy chain; The fluorescent label differs between experiments; also called H1 switching peptide; third peptide compound H1) [H1 peptide] , thanks.
Reply: -87.7

Ask: Query (binder): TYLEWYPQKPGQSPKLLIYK (not fully specified (N-terminus), Synthetic 20-mer homologous to the FR2 region of the light chain; The label differs between experiments; also called L1 switching peptide; first peptide compound L1) [L1 peptide] ; field requested: change (%) of fluorescence at bottom (B) of microplate
Reply: -87.3

Ask: I would be grateful if you could share the reported change (%) of fluorescence at bottom (B) of microplate for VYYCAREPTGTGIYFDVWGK (not fully specified (N-terminus), Synthetic 20-mer homologous to the FR3 or FR4 region of the heavy chain; The label differs between experiments; also called H2 switching peptide; fourth peptide compound H2) [H2 peptide] .
Reply: -85.2
